Kindly state folding stability dG unfold for each of the entries shown.
Test: folding stability dG unfold from trypsin proteolysis; higher = more stable
Answer by giving the amount and then stating its unit.

INPUT: folding stability dG unfold lookup needed for SAGGSAGGMILLETEEGEPKAVILFELRDPLFGGEIPLEFLEELAEEIKEKFPEIKHIELIGLPSAGGSAGG [r6_793_TrMRF] , thanks.
OUTPUT: 6.13 kJ/mol

INPUT: Entry SAGGSAGGSAGMTIKEDPKTGTRVVRLPDGSVLYIEEKGDKIKKVYSDPVPPVPPGNPALASAGGSAGGSAG [r3_406_JUSTAS] has what folding stability dG unfold?
OUTPUT: 0.907 kJ/mol

INPUT: Would you mind telling me what folding stability dG unfold value was observed for SAGGKEIEELAKKLAEELGVEVVKVEVEKVGPDTVKVTVTLKDGKKIKIEIKKKKDGSYEIKVEIEPSAGGS [r8_284_TrROS_Hall] ?
OUTPUT: 12.9 kJ/mol

INPUT: Sample SAGGSAGGSAGYISIMIFFVLPDGYAIMVKYTFELPPNGNPKIENIEIHVMKLPPGEPIFSAGGSAGGSAGG [r11_517_TrROS] — what was its folding stability dG unfold?
OUTPUT: 17.6 kJ/mol

INPUT: Reported folding stability dG unfold for SAGGSAGGSAPPPPPPVYRIPIEITEIDPNGKITVTLPDLGEEITFPAPNVEVIPGDEFYIPSAGGSAGGSA [r18_89_TrROS] : what is it?
OUTPUT: 8.17 kJ/mol

INPUT: So what's the measured folding stability dG unfold for this one? SAGGSAGGSSSSTLISVEPSPGIVTVERPLSLDPVPVVERRIMTVSPSSSLSVTETSVFPVSLLSAGGSAGG [r6_970_JUSTAS]
OUTPUT: 3.42 kJ/mol

INPUT: State the recorded folding stability dG unfold for this entry: SAGGSAGGSAPDIKILEPLEVDPDNGMITLKIELPGDGKVHEAIFFNPDGEPMMKFTIEIPKSAGGSAGGSA [r18_296_TrROS]
OUTPUT: 0.917 kJ/mol

====

Test: folding stability dG unfold from trypsin proteolysis; higher = more stable
parameter-measured: folding stability dG unfold (kcal/mol)
Give the value, in units of kcal/mol, as a plain number.

INPUT: Entry SAGGSAGGSAGGLLEELKAKGYTVLSTPVPSPPDGVPTRTVLAKKGEGTVTFVVPAALLSAGGSAGGSAGGS [r10_35_JUSTAS] : reported folding stability dG unfold = ?
OUTPUT: -0.172

INPUT: Look up folding stability dG unfold: RVEVLENGEVIAVFPAEFLADIPPDDPLLLTLTLTLPDGYRVYVTFYNLPDGTVVAIARVEPVEVGPELAAS [r1_394_TrMRF]
OUTPUT: 3.32

INPUT: What folding stability dG unfold value was documented for this sequence, MLVVEVPAEELSPEQVRERIRAALRAAREAGIRDARIVIVVEASEEQRERLRRELRELAEEEGLEVEIVERS [r1_387_TrROS_Hall] ?
OUTPUT: 4.83

INPUT: Recorded folding stability dG unfold of SAGGSAGGSAMTPDETRTVVVEEELPNGEPVVRVTDVRTLPDGSLETLGERVITREELEERSAGGSAGGSAG [r3_212_JUSTAS] , please.
OUTPUT: -0.438

====

Experiment: folding stability dG unfold (combined trypsin and chymotrypsin); higher = more stable
parameter-measured: folding stability dG unfold (kcal/mol)
Report as a plain number; the unit kcal/mol is understood.

INPUT: # get_value(readout='folding stability dG unfold', item= SAEELAEAEARRLGVDPAAVALEVTEEVDPLTGKPRKIVTVTIALPDRAYVITVDASDGTVLERRPLEAASA [r9_1219_JUSTAS] )
OUTPUT: 2.28

INPUT: Look at this sequence and give its reported folding stability dG unfold. SAGSPVTLELRVTRPRADAATGAPATATETVTVTLPAAVVAAGLSPEEIARLLEAANPGATVELTAVASAGG [r19_110_JUSTAS]
OUTPUT: 0.582

INPUT: Entry under review: SAGGSAGGSMKVVKILSIETKAEKDEEVLTIPVLDPANGKVITLTVSPEVAKTITTDDEIELLSAGGSAGGS [r12_382_JUSTAS] . Reported folding stability dG unfold?
OUTPUT: 0.47

INPUT: Reported folding stability dG unfold, sequence SAGGSAMIEIEINGKKYKIEIVKVEEKDGKVKVKIKIKDKETGKEIEIEIEMPKEELEKLLKEILSSAGGSA [r15_944_TrROS_Hall] : ____
OUTPUT: 3.65

INPUT: Name the recorded folding stability dG unfold for SAGGSASLEEVASLPASALAAAAGLTALSVEVTREPDGTVTVTIETRPPDGPVVTVTYTFPVDPAASAGGSA [r15_805_JUSTAS] .
OUTPUT: 2.06

INPUT: Please give the measured folding stability dG unfold for this sequence: DDWVTLPVEIWIPVRNPDGKPLTPEQVKETANSIRNELARNHGIDVEVDVKVEPVGPNGYYRINATVTIRPS [r1_231_TrROS]
OUTPUT: 2.72

INPUT: State the recorded folding stability dG unfold for this entry: SAGGSAGGSAGGGMTTTYTTETIEAPDGTVVIKKTTTYDYGNGSLTKPTIYNPDGTPIGSAGGSAGGSAGGS [r10_1056_JUSTAS]
OUTPUT: -0.188

INPUT: # get_value(readout='folding stability dG unfold', item= SPRTTVSFEVYMPPDQLKQNSIEDIADRVRDHFPGYKIKGIDIKFEPYPDPENGRPWVRVTVMIRVEPPESA [r9_1189_TrROS] )
OUTPUT: 2.96

INPUT: Can you share its folding stability dG unfold? I mean this sequence: SAGMIEISEEGDTLTVTVPPGVSLEEVREYVEKKYPGMDLQEITETALPDGTTTVTFNVKKNPPSPKLLSAG [r5_110_JUSTAS]
OUTPUT: 0.316

INPUT: Requested read-out: folding stability dG unfold. Entry: SAGGSASIKVTYRFPPDTTVEQAIEDLIAYLEAQTNVKISIPSYTVEREGDYLLVTADILIEPLPESAGGSA [r15_105_TrMRF]
OUTPUT: 4.59

INPUT: Consider the sequence shown here: SMPVTITRDFDIPLATLSVEEVKAAIEEALKAEGLNVVEPKLDEKLVKELEEAPPSSTLPVKVTVLVEPASA [r9_1163_JUSTAS] What is its recorded folding stability dG unfold?
OUTPUT: 0.62

INPUT: Reported folding stability dG unfold for SAGMMTVEELKEKLKEAAEKAGVKVKEIKITGPDGKEITVEVDLSEEQLKKLAEELGLEIDEVEVREPSAGG [r19_50_TrROS_Hall] : what is it?
OUTPUT: 1.67

INPUT: May I ask what folding stability dG unfold has been recorded for SAGKPPPVKIEVNYRRTPDNSYRAEVQIRLPDGKPLFEVTYPFDNPDDPEARERFVRKARNLAKELANSAGG [r19_13_TrROS] ?
OUTPUT: 2.14

====

Experiment: folding stability dG unfold from trypsin proteolysis; higher = more stable
Lab note: anything with folding stability dG unfold at or over 0.6 kcal/mol counts as MET; the rest go in NOT MET.

INPUT: Is it the case that SAGGSAGGMLRVRVETTLPGSGETLDLELEFPSEEEARRAIEALVPPEERAEVRVEFLPPGVPESAGGSAGG [r6_657_JUSTAS] has folding stability dG unfold reaching or exceeding 0.6 kcal/mol?
OUTPUT: NOT MET

INPUT: Identify whether the reported folding stability dG unfold of the following sequence is 0.6 kcal/mol or greater: SAGGSAKPKRFVALIKLKGPEGKEIAEIPIVISPDKPEVDIDEIAREIAEKLGVEEIEAEIKEIEESAGGSA [r15_333_TrMRF]
OUTPUT: NOT MET

INPUT: Is reported folding stability dG unfold greater than or equal to 0.6 kcal/mol here: SAGGMTLVLRFPSKEEALEALRELAEALGLEVEITKIEIEEREVEDPETGEKRREVLITIEVKVKPPSAGGS [r16_587_TrROS_Hall]
OUTPUT: MET

INPUT: API: above_or_equal(metric=folding stability dG unfold, cutoff=0.6 kcal/mol) for item SAGGSAGGKIPPNMEIEPWRFGGKPYFLIRMPNGSYQVFEFKGDKLKIKETIPVPPGDWILIKFSAGGSAGG [r6_476_TrROS]
OUTPUT: MET

INPUT: Check if folding stability dG unfold >= 0.6 kcal/mol (inclusive). Item: SAGGSAGGSAGGRITINPENGMVQIKGPNGNQHTFPMDDASELQKEFGLPNIDIEVFPPNSAGGSAGGSAGG [r7_235_TrROS]
OUTPUT: NOT MET

INPUT: Test whether the sequence SAGGEKEYVEVTLEIEIEIELEPGESAEEIARKLAEELGAEITEVRVERLPDGTVKITVTVRVKLPPSAGGS [r8_292_TrROS_Hall] records folding stability dG unfold of 0.6 kcal/mol or higher.
OUTPUT: MET

INPUT: In plain terms: is recorded folding stability dG unfold at least 0.6 kcal/mol for SAGGKKKKVVIKLPSTNKAVEAELVSVKKGKNKYYLEIKLPNGKKYKFPLEVIGDFKWDEGEGTLEVPSAGG [r13_211_TrMRF] ?
OUTPUT: MET

INPUT: Could you tell me if the measured folding stability dG unfold of SAGGSAGGSAGGKIDRIQLHYNPGGNVYFRIYGPNGKPRYFMMPAEDLEDFPNAPIEIYPSAGGSAGGSAGG [r7_238_TrROS] reaches 0.6 kcal/mol or more?
OUTPUT: MET

INPUT: Assess whether reported folding stability dG unfold for SMTTRESTIDASIPGYTVSKVSVTTLPGGERKITITLPSGKVLVLSTPADPALVPLTVTSEFSPEEVAAKSA [r9_1075_JUSTAS] sits at 0.6 kcal/mol or higher.
OUTPUT: MET

INPUT: Hello, I need to know if SAGGSAGGSAGMEYHLVVVRPPNGEELVLLTDDDPELARRAARELFPGAEVRVEPVVLPESAGGSAGGSAGG [r11_850_TrMRF] has measured folding stability dG unfold not below 0.6 kcal/mol. Thanks!
OUTPUT: NOT MET

INPUT: Please indicate if the recorded folding stability dG unfold for SLTPEQVEKIAKTIADVFRKLGYELKVKTKVFEVNNVPVAVVEFELIDKDGKPRRFRFVIHPDGTIEIFPSA [r9_1027_TrMRF] meets or exceeds 0.6 kcal/mol.
OUTPUT: MET

INPUT: Record SAGMTIELPNATVTLERVPVPATGESAWVVTVTARHPDGSTPTVVAVFPEDTPPEDVLAAALALAEELESAG [r5_704_TrMRF] ; criterion: folding stability dG unfold no lower than 0.6 kcal/mol. Met?
OUTPUT: MET

INPUT: Quick check: does SAGGSAGGSKLRLVLKFKTPEEAEEAARKLAEELKKKEGVKEVKVSVVKVNGEYYVVVEVEKESAGGSAGGS [r12_7_TrROS_Hall] have folding stability dG unfold greater than or equal to 0.6 kcal/mol?
OUTPUT: MET

INPUT: Determine whether measured folding stability dG unfold meets or exceeds 0.6 kcal/mol for SAGGSAGGSAGGSMKIVEVELIEYDEETKEFVYVFRVRLEDGSERLIVITPDGEMRVVPSAGGSAGGSAGGS [r4_35_TrROS_Hall]
OUTPUT: MET
